Attribution: ChEMBL document CHEMBL1137845

Target sequence: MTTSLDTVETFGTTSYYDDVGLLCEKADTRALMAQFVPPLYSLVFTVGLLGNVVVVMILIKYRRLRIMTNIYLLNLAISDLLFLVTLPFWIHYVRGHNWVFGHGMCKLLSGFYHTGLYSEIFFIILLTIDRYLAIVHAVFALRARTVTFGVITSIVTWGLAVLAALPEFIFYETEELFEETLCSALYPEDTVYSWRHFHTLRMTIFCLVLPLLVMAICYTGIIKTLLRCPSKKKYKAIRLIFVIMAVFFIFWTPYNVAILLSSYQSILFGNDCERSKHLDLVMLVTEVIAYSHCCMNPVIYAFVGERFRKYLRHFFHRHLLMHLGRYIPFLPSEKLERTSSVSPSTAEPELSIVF
# Lookup of reported pIC50 keyed by entry
Please report pIC50 as the negative decimal logarithm of the molar concentration, giving only the number.

{"compound": "Cc1cc(NC(=O)NCCCN2CCC[C@@H](Cc3ccc(F)cc3)C2)cc(-c2nnnn2C)c1", "pIC50": 8.82}
{"compound": "Cn1nnnc1-c1cc(NC(=O)NCCCN2CCC[C@@H](Cc3ccc(F)cc3)C2)cc(-c2ccccc2)c1", "pIC50": 8.62}
{"compound": "Cn1nnnc1-c1cc(CO)cc(NC(=O)NCCCN2CCC[C@@H](Cc3ccc(F)cc3)C2)c1", "pIC50": 9.05}
{"compound": "CNC(=O)c1cc(NC(=O)NCCCN2CCC[C@@H](Cc3ccc(F)cc3)C2)cc(-c2nnnn2C)c1", "pIC50": 9.15}

Lab book: pIC50 of N#Cc1cccc(NC(=O)NCCCN2CCCC(Cc3ccc(F)cc3F)C2)c1 (stereo not given) noted as 7.72

* * *

- subject-of-test: CC chemokine receptor 3 (Homo sapiens)
- test: Binding affinity against CC chemokine receptor 3 was determined using human [125I]-eotaxin
experimental-readout: IC50 (nM)
Numeric answer only, unit nM assumed.

Lab book: IC50 of COc1cccc(NC(=O)NCCCN2CCCC(CCc3ccccc3)C2)c1 (stereo unspecified) noted as 787

* * *

# Lookup of reported pEC50 keyed by entry
- test: Effective concentration determined in calcium mobilization assay
- Assay type: functional
Please report pEC50 as the negative decimal logarithm of the molar concentration, giving only the number.

{"smiles-record": "Cn1nnnc1-c1cccc(NC(=O)NCCCN2CCC[C@@H](Cc3ccc(F)cc3)C2)c1", "pEC50": 8.89}
{"smiles-record": "Cc1cc(NC(=O)NCCCN2CCC[C@@H](Cc3ccc(F)cc3)C2)cc(-c2nnnn2C)c1", "pEC50": 9.05}
{"smiles-record": "CC(=O)c1cccc(NC(=O)NCCCN2CCC[C@@H](Cc3ccc(F)cc3)C2)c1", "pEC50": 8.62}
{"smiles-record": "Cn1nnnc1-c1cc(NC(=O)NCCCN2CCC[C@@H](Cc3ccc(F)cc3)C2)cc(-c2nnnn2C)c1", "pEC50": 9.12}
{"smiles-record": "Cn1nnnc1-c1cc(Br)cc(NC(=O)NCCCN2CCC[C@@H](Cc3ccc(F)cc3)C2)c1", "pEC50": 8.47}
{"smiles-record": "O=C(NCCCN1CCC[C@@H](Cc2ccc(F)cc2)C1)Nc1cccc(-c2nnco2)c1", "pEC50": 7.35}

Lab book: pEC50 of CNC(=O)c1cc(NC(=O)NCCCN2CCC[C@@H](Cc3ccc(F)cc3)C2)cc(-c2nnnn2C)c1 noted as 9.22
